// data source = PubChem BioAssay (EPA / NIEHS)

- PROTOCOL_DETAILS: APR_HepG2_MitoticArrest_72hr: Apredica 72-hour HepG2 Assay for Mitotic Arrest (AID 2282918)
- CONDITIONS: high-content imaging, actives raise or lower the signal
Active and inactive are the calls of the source. The calls were made as follows: active = hit-call score of the fitted dose curve at least 0.9, where 1 is the maximum; inactive = score below 0.9.
READOUT_NAME: AC50

Recorded AC50, per entry:
{"COMPOUND": "c1ccc2c(c1)Cc1ccccc1-2", "READOUT_NAME": "AC50", "MEAS_VALUE": "inactive"}
{"COMPOUND": "O=C(O)c1ccccc1C(c1ccc(O)cc1)c1ccc(O)cc1", "READOUT_NAME": "AC50", "MEAS_VALUE": "inactive"}
{"COMPOUND": "CCc1ccc(CCOc2ccc(CC3SC(=O)NC3=O)cc2)nc1 (configuration not stated)", "READOUT_NAME": "AC50", "MEAS_VALUE": "103 µM (active)"}
{"COMPOUND": "Cc1oc(-c2ccccc2)nc1CCOc1ccc(C[C@H](Nc2ccccc2C(=O)c2ccccc2)C(=O)O)cc1", "READOUT_NAME": "AC50", "MEAS_VALUE": "67.8 µM (active)"}
{"COMPOUND": "CN1CCN(c2ccccc2/C=C2\\SCCN(c3ccc(Cl)c(Cl)c3)C2=O)CC1", "READOUT_NAME": "AC50", "MEAS_VALUE": "4.25 µM (active)"}
{"COMPOUND": "CCCCOCCO", "READOUT_NAME": "AC50", "MEAS_VALUE": "inactive"}
{"COMPOUND": "CCC(=C(c1ccc(O)cc1)c1ccc(OCCN(C)C)cc1)c1ccccc1", "READOUT_NAME": "AC50", "MEAS_VALUE": "inactive"}
{"COMPOUND": "O=C(OCCOCCOC(=O)c1ccccc1)c1ccccc1", "READOUT_NAME": "AC50", "MEAS_VALUE": "inactive"}

Any idea what AC50 was measured for CC(O)CO (configuration not stated) ?
inactive

Now the same for CC(C)(C)c1cccc(C(C)(C)C)c1O
inactive

Item: CCc1nn(C2CCCCC2)c2cc(C3(C#N)CCC(C(=O)O)CC3)ccc12 (configuration not stated)
80.7 µM (active)

Same thing, different compound: O=C(/C=C/c1ccc(O)cc1)CC(=O)/C=C/c1ccc(O)cc1
inactive

====

- Read-out: Human Leukocyte Antigen - DR isotype (HLADR), HLA-DRA (gene 3122)
- PROTOCOL_DETAILS: BSK_BE3C_HLADR: BioMAP Diversity Plus: BE3C Assay for Human Leukocyte Antigen - DR isotype (HLADR) Biomarker Activity (AID 2283032)
- CONDITIONS: primary human bronchial epithelial cells; actives raise or lower the signal
Activity calls are given as the source filed them. The calls were made as follows: active = hit-call score of the fitted dose curve at least 0.9, where 1 is the maximum; inactive = score below 0.9.
Your response should consist of one outcome taken from active, inactive

Previously resolved entries follow.
{"MOLECULE": "c1ccc2c(c1)ccc1ccccc12", "LABEL_VALUE": "inactive"}
{"MOLECULE": "CCCCCCCC(=O)O", "LABEL_VALUE": "inactive"}
{"MOLECULE": "CCCOC(=O)c1ccc(O)cc1", "LABEL_VALUE": "inactive"}

Name the outcome recorded for OCCC(F)(F)C(F)(F)C(F)(F)C(F)(F)C(F)(F)C(F)(F)F in the assay.
inactive

What do we get for CCCCC(CC)COC(=O)CCCCC(=O)OCc1ccccc1 (stereo not drawn) ?
inactive

Moving on to CC(=O)NC1(c2cccc(F)c2)CCN(CC[C@@]2(c3ccc(Cl)c(Cl)c3)CN(c3ccccc3)C(=O)CO2)CC1
active

Now the same for Nc1cccc2c(N)cccc12
inactive

====

- PROTOCOL_DETAILS: CCTE_Shafer_MEA_acute_per_network_burst_spike_number_mean: CCTE's Neural Acute Assay for Average Number of Spikes in a Network Burst, Shafer Lab (AID 2284019);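 as to AC50: curve fitted for loss of signal so actives reduce spikes per network burst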
- Experimental: CCTE_Shafer_MEA_acute assay is conducted using Axion Biosystems 48 well microelectrode array (MEA) plates and Maestro recording system. Each well of the MEA plate contains a grid of 16 microelectrodes embedded in the culture surface. Electrically active cells, such as neurons, can be cultured over the electrodes, and electrical activity in these cells can be recorded extracellularly. […]
Activity calls are given as the source filed them. Rule for the calls: active = hit-call score of the fitted dose curve at least 0.9, where 1 is the maximum; inactive = score below 0.9.

{"MOL": "CC[C@H](c1ccc(O)cc1)[C@@H](CC)c1ccc(O)cc1", "AC50": "inactive"}
{"MOL": "O=c1c(-c2ccc(O)cc2)coc2cc(O)ccc12", "AC50": "4.06 µM (active)"}
{"MOL": "CC#C[C@]1(O)CC[C@H]2[C@@H]3CCC4=CC(=O)CCC4=C3[C@@H](c3ccc(N(C)C)cc3)C[C@@]21C", "AC50": "inactive"}

====

- PROTOCOL_DETAILS: Tanguay_ZF_120hpf_JAW_legacy: (Legacy) Oregon State University Tanguay Lab 120 Hour Post-fertilization zebrafish Assay for Jaw Malformation (AID 2283638)
Inconclusive results are not listed. Calls of active or inactive are those of the source. Rule for the calls: active = hit-call score of the fitted dose curve at least 0.9, where 1 is the maximum; inconclusive = response in the unintended direction; inactive = score below 0.9.
Please state which outcome applies, choosing from active, inactive

Worked set:
{"COMPOUND": "CCCOC(=O)c1ccc(O)cc1", "LABEL_VALUE": "active"}
{"COMPOUND": "CC[C@H](c1ccc(O)cc1)[C@@H](CC)c1ccc(O)cc1", "LABEL_VALUE": "inactive"}
{"COMPOUND": "CC(C)(C)c1cccc(C(C)(C)C)c1O", "LABEL_VALUE": "inactive"}
{"COMPOUND": "CCCCCCCCC(=O)O", "LABEL_VALUE": "inactive"}
{"COMPOUND": "CCCCC(CC)COC(=O)CCCCC(=O)OCC(CC)CCCC (centres undefined)", "LABEL_VALUE": "inactive"}

Tell me the assay call for CCc1ccc(CCOc2ccc(CC3SC(=O)NC3=O)cc2)nc1 (centres undefined) please.
inactive

What do you have for CC(C)CCCCCCOC(=O)CCCCC(=O)OCCCCCCC(C)C ?
inactive

Queued: NC(=O)N(O)[C@@H]1C=C[C@H](Oc2cccc(Oc3ccc(F)cc3)c2)C1
inactive

How about CC(C)(C)CC(C)(C)c1ccc(O)c(-n2nc3ccccc3n2)c1 ?
inactive

Thanks! And O=C(OCCOCCOC(=O)c1ccccc1)c1ccccc1 ?
inactive

Next compound up: CCCCCCCCCCCCCCCS(=O)(=O)Oc1ccccc1
inactive

Next compound up: COCC(C)OCC(C)O (centres undefined)
inactive

Try CC(C)(C)c1cc(C(C)(C)C)c(O)c(C(C)(C)C)c1 next.
inactive

Now consider CCOC(=O)CC(O)(CC(=O)OCC)C(=O)OCC and answer again.
inactive

Same thing, different compound: COCC(C)O (centres undefined)
inactive

Another: c1ccc2cc3c(ccc4ccccc43)cc2c1
active

Record: O=c1c(-c2ccc(O)cc2)coc2cc(O)ccc12
inactive

Could you do the same for CCc1nn(C2CCCCC2)c2cc(C3(C#N)CCC(C(=O)O)CC3)ccc12 (centres undefined) , please?
active

One more compound: OC1CCC(C2CCCCC2)CC1 (centres undefined)
inactive

====

- Read-out: Interleukin-6 (IL6), IL6 (gene 3569)
- PROTOCOL_DETAILS: BSK_CASM3C_IL6: BioMAP Diversity Plus: CASM3C Assay for Interleukin-6 (IL6) Biomarker Activity for (AID 2283040)
- CONDITIONS: primary human coronary artery smooth muscle cells; actives raise or lower the signal
Activity calls are given as the source filed them. How the source made its calls: active means hit-call score of the fitted dose curve at least 0.9, where 1 is the maximum; inactive means score below 0.9.
Just give me one of these, please: active, inactive

Below are worked cases with known answers.
{"COMPOUND": "O=[N+]([O-])c1ccc(O)cc1", "LABEL_VALUE": "inactive"}
{"COMPOUND": "Nc1cccc2c(N)cccc12", "LABEL_VALUE": "inactive"}
{"COMPOUND": "CCCCCCCCCCCCc1ccccc1S(=O)(=O)O", "LABEL_VALUE": "inactive"}
{"COMPOUND": "CC1=C(/C=C/C(C)=C/C=C/C(C)=C/C(=O)O)C(C)(C)CCC1", "LABEL_VALUE": "active"}
{"COMPOUND": "OCCC(F)(F)C(F)(F)C(F)(F)C(F)(F)C(F)(F)C(F)(F)C(F)(F)C(F)(F)F", "LABEL_VALUE": "inactive"}

Query: recorded result category for CC(O)CO (configuration not stated) in this test
inactive

How about this compound: CC#C[C@]1(O)CC[C@H]2[C@@H]3CCC4=CC(=O)CCC4=C3[C@@H](c3ccc(N(C)C)cc3)C[C@@]21C
inactive

Moving on to N#C[C@@H]1CC(F)(F)CN1C(=O)CNC1CC2CCC(C1)N2c1ncccn1 (some centres not stated)
inactive

Now consider CC(C)(C)c1cc(C(C)(C)C)c(O)c(C(C)(C)C)c1 .
inactive

====

- PROTOCOL_DETAILS: CEETOX_H295R_OHPREG: CeeTox H295R High-throughput Steroidogenesis Assay for OH-Pregnenolone (OHPREG) (AID 2283434)
- CONDITIONS: actives raise or lower the signal
The source made the active and inactive calls. How the source made its calls: active means hit-call score of the fitted dose curve at least 0.9, where 1 is the maximum; inactive means score below 0.9.
Please reply with one of these outcomes: YES (active), NO (inactive)

Observe how each entry below is paired with its result.
{"MOLECULE": "COc1ccc([N+](=O)[O-])cc1N", "LABEL_VALUE": "NO"}
{"MOLECULE": "CCCCCCCCCCCCCCCS(=O)(=O)Oc1ccccc1", "LABEL_VALUE": "YES"}
{"MOLECULE": "CCc1ccc(CCOc2ccc(CC3SC(=O)NC3=O)cc2)nc1 (configuration not stated)", "LABEL_VALUE": "NO"}
{"MOLECULE": "CCCOC(=O)c1ccc(O)cc1", "LABEL_VALUE": "YES"}
{"MOLECULE": "O=[N+]([O-])c1ccc(O)cc1", "LABEL_VALUE": "NO"}

Dear colleague, could you share the recorded outcome for Oc1cccc(O)c1 when you have a moment?
NO

Moving on to NC(=O)N(O)[C@@H]1C=C[C@H](Oc2cccc(Oc3ccc(F)cc3)c2)C1
NO
